B1: MATN2 (parent)
chain: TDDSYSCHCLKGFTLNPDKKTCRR

Variants of: B1
experiment notes: protein stability index of a GFP-peptide fusion (GPS, HEK-293T) (PSI 1-6); higher = more stable;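 further: lentivirally expressed fusions sorted by FACS into six bins by GFP to DsRed ratio, PSI derived from sequencing read proportions per bin multiplied by bin number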
condition parameters: c terminus: a fixed tail appended
endpoint label: protein stability index

Worked set:
>  <residue sequence>
TDDSYSCLCLKGFTLNPDKKTCRR [H8L]

>  <protein stability index>
2.4

$$$$
>  <residue sequence>
TDSSYSCHCLKGFTLNPDKKTCRR [D3S]

>  <protein stability index>
2.24

$$$$
>  <residue sequence>
SDDSYSCHCLKGFTLNPDKKTCRR [T1S]

>  <protein stability index>
2.63

$$$$
>  <residue sequence>
TDDSYSCHCLKGFTLNPDKKTCMR [R23M]

>  <protein stability index>
1.5

$$$$

Q: Could you please provide reported protein stability index for TDYSYSCHCLKGFTLNPDKKTCRR [D3Y] ? Thanks!
A: 1.76

Q: Complete the entry with protein stability index for EDDSYSCHCLKGFTLNPDKKTCRR [T1E]
A: 2.09

Q: Give the value of protein stability index reported for the following: TDDSYSCHKLKGFTLNPDKKTCRR [C9K]
A: 4.03

Q: Provide measured protein stability index value, entry: TDDSYSCHCLKGFTLNPDKKTFRR [C22F]
A: 2.16
